Readings of MIC for the listed molecules
System: E. coli, ATCC8739
Assay: Antibacterial activity (MIC), E. coli
Type: cell-based
Conditions: Escherichia coli, ATCC8739, Table 1; E. coli ATCC8739; read-out: Antibacterial MIC (μM) E.Coli
measurementType: MIC

{"smiles": "Nc1c(F)c(NCCc2ccncc2)c(F)c2c1c(=O)c(C(=O)O)cn2CCc1ccccc1", "targetOrTestSystem": "E. coli, ATCC8739", "endpointResult": "10 to 50 µM"}
{"smiles": "Nc1c(F)c(NCCCn2ccnc2)c(F)c2c1c(=O)ccn2C1CC1", "targetOrTestSystem": "E. coli, ATCC8739", "endpointResult": "> 50 µM"}
{"smiles": "CC(C)(C)OC(=O)NCCNc1c(F)c(N)c2c(=O)c(C(=O)O)cn(C3CC3)c2c1F", "targetOrTestSystem": "E. coli, ATCC8739", "endpointResult": "0.5 to 10 µM"}
{"smiles": "Nc1c(F)c(NCCc2ccncc2)c(F)c2c1c(=O)c(C(=O)O)cn2C1CC1", "targetOrTestSystem": "E. coli, ATCC8739", "endpointResult": "0.5 to 10 µM"}
{"smiles": "COc1c(NCCNc2cccc3ccccc23)c(F)c(N)c2c(=O)c(C(=O)O)cn(C3CC3)c12", "targetOrTestSystem": "E. coli, ATCC8739", "endpointResult": "> 50 µM"}
{"smiles": "COc1c(NCCNc2ccccc2)c(F)c(N)c2c(=O)c(C(=O)O)cn(C3CC3)c12", "targetOrTestSystem": "E. coli, ATCC8739", "endpointResult": "10 to 50 µM"}
{"smiles": "Nc1c(F)c(NCCNc2cccc3ccccc23)c(F)c2c1c(=O)ccn2CCc1ccccc1", "targetOrTestSystem": "E. coli, ATCC8739", "endpointResult": "10 to 50 µM"}
{"smiles": "Nc1c(F)c(NCCc2ccncc2)c(F)c2c1c(=O)ccn2CCc1ccccc1", "targetOrTestSystem": "E. coli, ATCC8739", "endpointResult": "> 50 µM"}

----------
Listing: MIC of selected compounds
Tested on: E. coli, ATCC8739
Experiment: Antibacterial activity (MIC), E. coli
Type: cell-based
Conditions: Escherichia coli, ATCC8739, Table 1; E. coli ATCC8739; read-out: Antibacterial MIC (μM) E.Coli
From the text: As used herein, a minimum inhibitory concentration (MIC) for bacterial growth assay is the lowest level of a compound needed to cause an inhibition to bacterial growth in culture medium. In certain embodiments, the antibacterial activity of compounds herein, measured as MIC. […] Antibacterial activity for E. coli, ATCC8739 andS. aureus Smith expressed as MIC (μM) is provided as follows: […]

{"smiles": "Nc1c(F)c(NCCc2ccc(F)cc2F)c(F)c2c1c(=O)c(C(=O)O)cn2C1CC1", "MIC": "0.5 to 10 µM"}
{"smiles": "Nc1c(F)c(NCCCc2ccccc2)c(F)c2c1c(=O)c(C(=O)O)cn2CCCn1ccnc1", "MIC": "10 to 50 µM"}
{"smiles": "Nc1c(F)c(NCCc2ccncc2)c(F)c2c1c(=O)ccn2C1CC1", "MIC": "> 50 µM"}
{"smiles": "Nc1c(F)c(NCCCc2ccccc2)c(F)c2c1c(=O)c(C(=O)O)cn2CCc1ccccc1", "MIC": "10 to 50 µM"}
